Value source: paper PMC3406087

# subject.of.test: genotype 1a HCV NS3/4A protease domain (wild-type) (Hepatitis C virus genotype 1a)
# assay.overview: biochemical
# Design: species or system HCV genotype 1a
measured.quantity: pKi
Reminder that pKi is minus the log10 of a molar concentration.

query: Item CCC[C@H](NC(=O)[C@@H]1[C@H]2CCC[C@H]2CN1C(=O)[C@@H](NC(=O)[C@@H](NC(=O)c1cnccn1)C1CCCCC1)C(C)(C)C)C(=O)C(=O)NC1CC1 : provide pKi
result: 7.46

---

# System: D168A genotype 1a HCV Con1 luciferase reporter replicon in Huh7 cells
# assay.overview: Viral replicon-based inhibition assay, D168A variant
# Type: cell-based, HCV genotype 1a
# applied.conditions: Hepatitis C virus, Huh-7, 96 h, read-out: Replicon - IC50, D168A
measured.quantity: pIC50
Reminder that pIC50 is minus the log10 of a molar concentration.

query: Item C=C[C@@H]1C[C@]1(NC(=O)[C@@H]1C[C@@H]2CN1C(=O)[C@H](C(C)(C)C)NC(=O)O[C@@H]1C[C@H]1CCCCCc1nc3ccc(OC)cc3nc1O2)C(=O)NS(=O)(=O)C1CC1 : provide pIC50
result: 7.89

query: Item CCC[C@H](NC(=O)[C@@H]1[C@H]2CCC[C@H]2CN1C(=O)[C@@H](NC(=O)[C@@H](NC(=O)c1cnccn1)C1CCCCC1)C(C)(C)C)C(=O)C(=O)NC1CC1 : provide pIC50
result: 6.38

query: Item CC(C)(C)OC(=O)N[C@H]1CCCCC/C=C\[C@@H]2C[C@@]2(C(=O)NS(=O)(=O)C2CC2)NC(=O)[C@@H]2C[C@@H](OC(=O)N3Cc4cccc(F)c4C3)CN2C1=O : provide pIC50
result: 7.32

---

# Tested on: A156T genotype 1a HCV Con1 luciferase reporter replicon in Huh7 cells
# assay.overview: Viral replicon-based inhibition assay, A156T variant
# Type: cell-based, HCV genotype 1a
# applied.conditions: Hepatitis C virus, Huh-7, 96 h, read-out: Replicon - IC50, A156T
measured.quantity: IC50 (nM)
Respond numerically; units are nM and should not be typed.

query: Item C=C[C@@H]1C[C@]1(NC(=O)[C@@H]1C[C@@H]2CN1C(=O)[C@H](C(C)(C)C)NC(=O)O[C@@H]1C[C@H]1CCCCCc1nc3ccc(OC)cc3nc1O2)C(=O)NS(=O)(=O)C1CC1 : provide IC50
result: 108

query: Item CC(C)(C)OC(=O)N[C@H]1CCCCC/C=C\[C@@H]2C[C@@]2(C(=O)NS(=O)(=O)C2CC2)NC(=O)[C@@H]2C[C@@H](OC(=O)N3Cc4cccc(F)c4C3)CN2C1=O : provide IC50
result: 5.7

query: Item CC[C@@H]1C[C@]1(NC(=O)[C@@H]1C[C@@H]2CN1C(=O)[C@H](C(C)(C)C)NC(=O)OCC(C)(C)CCCCc1cccc3c1CN(C3)C(=O)O2)C(=O)NS(=O)(=O)C1CC1 : provide IC50
result: 176
